Form field: pIC50 (one value per entry).
Assayed Target: Broad substrate specificity ATP-binding cassette transporter ABCG2 (Homo sapiens, UniProt Q9UNQ0)
Sequence (Q9UNQ0 whole entry): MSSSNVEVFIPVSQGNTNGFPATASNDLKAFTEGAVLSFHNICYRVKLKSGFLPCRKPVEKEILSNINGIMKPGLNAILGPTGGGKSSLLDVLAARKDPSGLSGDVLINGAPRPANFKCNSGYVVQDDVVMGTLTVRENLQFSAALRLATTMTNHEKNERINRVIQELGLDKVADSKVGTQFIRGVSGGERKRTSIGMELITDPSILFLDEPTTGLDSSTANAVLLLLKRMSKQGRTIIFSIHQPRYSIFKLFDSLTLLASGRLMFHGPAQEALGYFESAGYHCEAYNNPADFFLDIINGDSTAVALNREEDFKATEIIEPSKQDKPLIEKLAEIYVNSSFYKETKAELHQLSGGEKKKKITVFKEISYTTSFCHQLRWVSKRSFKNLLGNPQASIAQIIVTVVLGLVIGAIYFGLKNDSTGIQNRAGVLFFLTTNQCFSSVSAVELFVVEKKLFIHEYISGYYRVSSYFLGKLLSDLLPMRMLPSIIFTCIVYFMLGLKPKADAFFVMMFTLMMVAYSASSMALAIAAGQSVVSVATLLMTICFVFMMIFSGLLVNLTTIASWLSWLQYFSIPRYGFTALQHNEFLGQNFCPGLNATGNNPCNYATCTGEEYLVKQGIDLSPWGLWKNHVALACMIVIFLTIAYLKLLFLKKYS
Method Description: Inhibition of human ABCG2 expressed in MDCK2 cells co-expressing GFP preincubated for 15 mins followed by pheophorbideA addition and measured after 2 hrs by flow cytometric analysis
Type: cell-based, MDCK-II
pIC50: −log10 of the molar value.

{"columns": ["Cpd Smiles", "pIC50"],
 "data": [
  ["Cc1cc(Nc2ccc(C#N)c(C(F)(F)F)c2)nc(-c2ccccc2)n1", 6.41],
  ["Cc1cc(Nc2cccc(CO)c2)nc(-c2ccccc2)n1", 5.60],
  ["Cc1cc(Nc2ccc([N+](=O)[O-])cc2)nc(-c2ccccc2)n1", 6.81],
  ["COc1ccc(Nc2cc(C)nc(-c3ccccc3)n2)cc1F", 5.88],
  ["Cc1cc(Nc2cccc(O)c2)nc(-c2ccccc2)n1", 6.29],
  ["Cc1cc(Nc2cccc([N+](=O)[O-])c2)nc(-c2ccccc2)n1", 6.84],
  ["Cc1cc(Nc2ccc(C#N)c(Br)c2)nc(-c2ccccc2)n1", 7.23],
  ["Cc1cc(Nc2ccc3nccnc3c2)nc(-c2ccccc2)n1", 6.51],
  ["Cc1cc(Nc2ccc3c(c2)C(=O)NC3=O)nc(-c2ccccc2)n1", 6.38],
  ["Cc1cc(Nc2cccc(F)c2)nc(-c2ccccc2)n1", 6.11],
  ["Cc1cc(Nc2ccc(C#N)c(C#N)c2)nc(-c2ccccc2)n1", 6.26],
  ["Cc1cc(Nc2ccc(CC#N)cc2)nc(-c2ccccc2)n1", 5.44]
]}
